SYSTEM_TESTED: BRM (Homo sapiens, UniProt P51531)
Construct: made in house; host or cells: High Five insect cells
Sequence (P51531 whole entry): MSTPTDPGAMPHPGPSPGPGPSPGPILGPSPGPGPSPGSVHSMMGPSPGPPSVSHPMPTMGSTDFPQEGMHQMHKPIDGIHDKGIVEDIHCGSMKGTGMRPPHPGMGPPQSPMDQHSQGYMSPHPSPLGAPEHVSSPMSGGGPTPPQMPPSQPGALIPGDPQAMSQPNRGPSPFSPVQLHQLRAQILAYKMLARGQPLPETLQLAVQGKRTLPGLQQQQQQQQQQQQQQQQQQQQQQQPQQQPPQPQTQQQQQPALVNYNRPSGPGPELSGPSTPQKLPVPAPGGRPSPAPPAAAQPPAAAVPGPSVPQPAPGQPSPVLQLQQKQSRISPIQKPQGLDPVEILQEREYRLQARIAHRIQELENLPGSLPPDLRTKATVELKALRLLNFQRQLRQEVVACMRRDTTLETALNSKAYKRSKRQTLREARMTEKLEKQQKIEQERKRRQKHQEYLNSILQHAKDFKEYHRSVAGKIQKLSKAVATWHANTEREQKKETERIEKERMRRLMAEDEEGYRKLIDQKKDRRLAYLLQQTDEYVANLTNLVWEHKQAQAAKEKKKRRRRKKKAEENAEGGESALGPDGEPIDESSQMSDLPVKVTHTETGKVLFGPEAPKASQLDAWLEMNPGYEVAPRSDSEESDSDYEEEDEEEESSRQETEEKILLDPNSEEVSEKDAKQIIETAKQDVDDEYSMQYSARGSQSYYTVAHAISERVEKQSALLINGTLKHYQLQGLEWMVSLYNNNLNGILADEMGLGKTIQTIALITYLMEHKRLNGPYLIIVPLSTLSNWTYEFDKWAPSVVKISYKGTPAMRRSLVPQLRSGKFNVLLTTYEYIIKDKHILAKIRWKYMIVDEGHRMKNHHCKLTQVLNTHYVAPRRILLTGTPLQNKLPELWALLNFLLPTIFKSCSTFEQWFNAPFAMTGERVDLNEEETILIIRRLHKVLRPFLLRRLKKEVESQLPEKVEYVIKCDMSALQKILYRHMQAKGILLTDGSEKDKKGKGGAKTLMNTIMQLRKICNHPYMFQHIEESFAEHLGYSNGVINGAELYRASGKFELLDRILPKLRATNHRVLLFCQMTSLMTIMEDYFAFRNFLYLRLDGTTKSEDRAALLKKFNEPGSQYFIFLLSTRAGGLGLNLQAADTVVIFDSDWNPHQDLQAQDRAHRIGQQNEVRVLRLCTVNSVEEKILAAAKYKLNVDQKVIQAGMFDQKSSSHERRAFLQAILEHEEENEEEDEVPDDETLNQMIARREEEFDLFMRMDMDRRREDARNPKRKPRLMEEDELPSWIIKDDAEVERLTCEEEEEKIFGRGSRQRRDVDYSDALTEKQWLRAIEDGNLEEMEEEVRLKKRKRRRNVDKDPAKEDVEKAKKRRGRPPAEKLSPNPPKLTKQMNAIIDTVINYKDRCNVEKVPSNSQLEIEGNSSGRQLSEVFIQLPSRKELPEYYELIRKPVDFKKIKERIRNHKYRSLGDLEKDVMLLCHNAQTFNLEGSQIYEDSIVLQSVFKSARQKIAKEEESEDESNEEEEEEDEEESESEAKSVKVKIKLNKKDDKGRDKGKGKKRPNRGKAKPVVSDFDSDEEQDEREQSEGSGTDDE
METHOD: ATPase catalytic activity of BRM, ADP-Glo in vitro biochemical assay
TEST_SETTINGS: ADP-Glo ATPase assay, 30 nM BRM, 400 μM ATP
ENDPOINT: pIC50
# reply with the number alone; pIC50 is -log10 of concentration in mol/L

Here are 2 compounds together with their reported answers.
COMPOUND | pIC50
O=C(NCc1cc2nc(N3CCOc4cc(F)c(C(F)F)nc43)ccc2cn1)c1ccc2c(c1)S(=O)(=O)CCOC2 [Compound 781] | 7.55
CS(=O)(=O)c1cc(C(=O)NCc2cc3nc(-c4cccc(N5CC[C@@H]6OCC[C@H]6C5)n4)ccc3cn2)ccc1C(F)F [Compound 123] | 7.63

### Prompt Returns the measured pIC50 for the input compound. Input: O=C(NCc1cc2nc(N3CCOc4cc(N5CCC(F)(F)C5)cnc43)ccc2cn1)c1ccc2c(c1)S(=O)(=O)CCOC2 [Compound 758]
### Response 7.45

###

SYSTEM_TESTED: BRM (Homo sapiens, UniProt P51531)
Construct: made in house; host or cells: High Five insect cells
METHOD: ATPase catalytic activity of BRM, ADP-Glo in vitro biochemical assay
TEST_SETTINGS: ADP-Glo ATPase assay, 30 nM BRM, 400 μM ATP
pIC50: −log10 of the molar value.
Param threshold (7) applies to pIC50; output 1 when value >= threshold, 0 when value < threshold.

// below: answered compounds
COMPOUND | ASSIGNED_CLASS
O=C(NCc1cc2nc(-c3cncc(C4CC4)n3)ccc2cn1)c1cc(F)c2c(c1)S(=O)(=O)CCOC2 | 1
O=C(NCc1cc2nc(-c3cccc(C4CC(F)(F)C4)n3)ccc2cn1)c1ccc2c(c1)S(=O)(=O)CCOC2 | 1
Cn1ccc2c(-c3ccc4cnc(CNC(=O)c5ccc6c(c5)S(=O)(=O)CCOC6)cc4n3)ccnc21 | 1
O=C(NCc1cc2nc(-c3cccc(N4CC5(C4)CC5(F)F)n3)ccc2cn1)c1ccc2c(c1)S(=O)(=O)CCOC2 | 1
COCCS(=O)(=O)c1cc(C(=O)NCc2cc3nc(-c4cncc(C5CC5)n4)ccc3cn2)ccc1Cl | 0

### Prompt Dear colleague, could you confirm whether O=C(NCc1cc2nc(N3CCOc4cnc(C5CC5)c(F)c43)ccc2cn1)c1ccc2c(c1)S(=O)(=O)CCOC2 has pIC50 at or above 7?
### Response 1

### Prompt Please give the result for Cc1c(Cl)cc(C(=O)NCc2cc3nc(-c4cncc(C5CC5)n4)ccc3cn2)cc1S(C)(=O)=O too.
### Response 0

### Prompt Please give the result for COCC1CN(c2ccc3cnc(CNC(=O)c4ccc5c(c4)S(=O)(=O)CCOC5)cc3n2)c2ccccc2O1 (stereo not drawn) too.
### Response 0

###

Measured Ratio* of individual entries
SYSTEM_TESTED: BRM (Homo sapiens)
Construct: made in house; host or cells: High Five insect cells
METHOD: ATPase catalytic activity of BRM, ADP-Glo in vitro biochemical assay
TEST_SETTINGS: ratio of BRG1 IC50 to BRM IC50
Answer using only a numeral; do not append any unit.

### Prompt Returns the measured Ratio* for the input compound. Input: C[C@@H]1CN(c2cccc(-c3ccc4cnc(CNC(=O)c5ccc6c(c5)S(=O)(=O)[C@H](C)CC6)cc4n3)n2)C[C@H](C)O1
### Response 14.06

### Prompt Please give the result for O=C(NCc1cc2nc(N3CCOc4ccc(C(F)(F)F)nc43)ccc2cn1)c1ccc2c(c1)S(=O)(=O)CCOC2 too.
### Response 17.41

### Prompt Please give the result for COc1cc(C2CC2)ccc1-c1ccc2cnc(CNC(=O)c3ccc4c(c3)S(=O)(=O)CCOC4)cc2n1 too.
### Response 10.65

### Prompt Please give the result for Cc1cc(C(=O)NCc2cc3nc(-c4cccc(N5C[C@@H](C)O[C@@H](C)C5)n4)ccc3cn2)cc2c1COC[C@@H](C)S2(=O)=O too.
### Response 2.92

### Prompt Please give the result for CC1CCc2ccc(-c3ccc4cnc(CNC(=O)c5ccc6c(c5)S(=O)(=O)CCOC6)cc4n3)nc2N1C1CC1 (stereo not drawn) too.
### Response 9.58

### Prompt Please give the result for Cc1cc2c(nc1C1CC1)N(c1ccc3cnc(CNC(=O)c4ccc5c(c4)S(=O)(=O)CCOC5)cc3n1)CCC2 too.
### Response 19.38

###

SYSTEM_TESTED: BRM (Homo sapiens, UniProt P51531)
Construct: made in house; host or cells: High Five insect cells
METHOD: ATPase catalytic activity of BRM, ADP-Glo in vitro biochemical assay
TEST_SETTINGS: ADP-Glo ATPase assay, 30 nM BRM, 400 μM ATP
Okay, here is how we bin by IC50: band A: < 20 nM; band B: ≥ 20 nM and < 100 nM; band C: ≥ 100 nM

MOLECULE | ASSIGNED_CLASS
COCCN1CCCc2ccc(-c3ccc4cnc(CNC(=O)c5ccc6c(c5)S(=O)(=O)CCOC6)cc4n3)nc21 | band A
CN(CC1COC1)c1cccc(-c2ccc3cnc(CNC(=O)c4ccc5c(c4)S(=O)(=O)CCOC5)cc3n2)n1 | band B
O=C(NCc1cc2nc(N3CCOc4cc(N5CCCC5)cnc43)ccc2cn1)c1ccc2c(c1)S(=O)(=O)CCOC2 | band A
C[C@@H]1CN(c2cccc(-c3ccc4cnc(CNC(=O)c5ccc(CC(F)F)c(S(C)(=O)=O)c5)cc4n3)n2)C[C@H](C)O1 | band A
C[C@@H]1CN(c2cccc(-c3ccc4cnc(CNC(=O)c5cc(Cl)c6c(c5)S(=O)(=O)CCOC6)cc4n3)n2)C[C@H](C)O1 | band A
O=C(NCc1cc2c(cn1)CCN(c1cncc(C3CC3)n1)C2)c1ccc2c(c1)S(=O)(=O)CCOC2 | band C
O=C(NCc1cc2nc(-c3cccc(C4CC4)n3)ccc2cn1)c1ccc2c(c1)S(=O)(=O)CCOC2 | band B
O=C(NCc1cc2nc(N3CCOc4ccc([C@@H](F)CF)nc43)ccc2cn1)c1ccc2c(c1)S(=O)(=O)CCOC2 | band C

Next up:
### Prompt Which category fits this record: COCCN(c1ccc(C2CC2)cn1)c1ccc2cnc(CNC(=O)c3ccc4c(c3)S(=O)(=O)CCOC4)cc2n1
### Response band C

###

Measured pIC50 of individual entries
SYSTEM_TESTED: BRM (Homo sapiens)
Construct: made in house; host or cells: High Five insect cells
METHOD: ATPase catalytic activity of BRM, ADP-Glo in vitro biochemical assay
TEST_SETTINGS: ADP-Glo ATPase assay, 30 nM BRM, 400 μM ATP
# reply with the number alone; pIC50 is -log10 of concentration in mol/L

Here are 5 molecules together with their reported answers.
COMPOUND_SMILES | pIC50
O=C(NCc1cc2nc(N3CCn4ncc(C5CC5)c4C3)ccc2cn1)c1ccc2c(c1)S(=O)(=O)CCOC2 | 6.36
CC1(c2cccc(-c3ccc4cnc(CNC(=O)c5ccc6c(c5)S(=O)(=O)CCOC6)cc4n3)n2)CC1 | 7.75
COCc1ccc(C(=O)NCc2cc3nc(-c4cccc(N5C[C@@H](C)O[C@@H](C)C5)n4)ccc3cn2)cc1S(C)(=O)=O | 8.29
Cc1cc(C(=O)NCc2cc3nc(-c4cccc(N5C[C@@H](C)O[C@@H](C)C5)n4)ccc3cn2)cc2c1COCCS2(=O)=O | 8.10
O=C(NCc1cc2nc(N3CCN(C4CC4)c4cc(C5CC5)cnc43)ccc2cn1)c1ccc2c(c1)S(=O)(=O)CCOC2 | 7.82

### Prompt Returns the measured pIC50 for the input molecule. Input: O=C(NCc1cc2nc(-c3cccc(OC(F)F)n3)ccc2cn1)c1ccc2c(c1)S(=O)(=O)CCOC2
### Response 7.71

### Prompt Please give the result for O=C(NCc1cc2nc(-c3cncc(C4CC4)n3)ccc2cn1)c1ccc2c(c1)S(=O)(=O)COCC2 too.
### Response 7.47

### Prompt Please give the result for CC1(C)CCN(c2ccc3cnc(CNC(=O)c4ccc5c(c4)S(=O)(=O)CCOC5)cc3n2)c2ncccc21 too.
### Response 5.98

### Prompt Please give the result for C[C@@H]1CN(c2ccnc(-c3ccc4cnc(CNC(=O)c5ccc6c(c5)S(=O)(=O)CCOC6)cc4c3)n2)C[C@H](C)O1 too.
### Response 7.26

### Prompt Please give the result for CS(=O)(=O)c1cc(C(=O)NCc2cc3nc(-c4cncc(C5CC5)n4)ccc3cn2)ccc1CC(F)F too.
### Response 6.96

### Prompt Please give the result for CS(=O)(=O)c1cc(C(=O)NCc2cc3nc(-c4cccc(N5CC[C@H]6OCC[C@@H]6C5)n4)ccc3cn2)ccc1C(F)F too.
### Response 7.42

### Prompt Please give the result for O=C(NCc1cc2nc(N3CCOc4cc(F)cnc43)ccc2cn1)c1ccc2c(c1)S(=O)(=O)CCOC2 too.
### Response 7.98
